- System Name: β5 subunit of the human immunoproteasome (IPS) (Homo sapiens, UniProt P28062)
- Test Name: β5 inhibition assay, human immunoproteasome (Suc-LLVY-AMC)
- Experimental Parameters: IC50 class, Suc-LLVY-AMC substrate
pIC50: −log10 of the molar value.
Please respond with reported pIC50 for every item in the list.

Would you kindly share the measured pIC50 for Cc1ccc2cc1CNC(=O)[C@H](CCc1ccccc1)NC(=O)[C@@H](NC(=O)CCOCCC1CCCC1)CC(=O)N1CCCC(CCO2)C1 (stereo partly drawn) [Compound 623] ?
> 7.00

Would you kindly share the measured pIC50 for Cc1ccc2cc1CNC(=O)[C@H](CCc1ccccc1)NC(=O)[C@@H](NC(=O)Cc1cc(Cl)c(N)c(Cl)c1)CC(=O)N1CCCC(CCO2)C1 (stereo partly drawn) [Compound 320] ?
> 7.00

Would you kindly share the measured pIC50 for Cc1ccc2cc1CNC(=O)[C@H](CCc1ccccc1)NC(=O)[C@@H](NC(=O)CCNC(=O)c1ccc(N3CCOCC3)cc1)CC(=O)N1CCCC(CCO2)C1 (stereo partly drawn) [Compound 604] ?
> 7.00

Would you kindly share the measured pIC50 for Cc1ccc2cc1CNC(=O)[C@H](CCc1ccccc1)NC(=O)[C@@H](NC(=O)Cc1nc(-c3ccncc3)n[nH]1)CC(=O)N1CCCC(CCO2)C1 (stereo partly drawn) [Compound 329] ?
> 7.00

Would you kindly share the measured pIC50 for Cc1ccc2cc1CNC(=O)[C@@H](CCc1ccccc1)NC(=O)[C@H](NC(=O)OCc1ccccc1)CC(=O)N1CCC[C@H](CCO2)C1 [Compound 290] ?
6.00 to 6.30

Would you kindly share the measured pIC50 for Cc1ccc2cc1CNC(=O)[C@H](CCc1ccccc1)NC(=O)[C@@H](NC(=O)Cc1nc(-c3ccccc3)n[nH]1)CC(=O)N1CCCC(CCO2)C1 (stereo partly drawn) [Compound 328] ?
> 7.00

Would you kindly share the measured pIC50 for Cc1ccc2cc1CNC(=O)C(CCc1ccncc1)NC(=O)[C@@H](NC(=O)Cc1ccc(N)cc1F)CC(=O)N1CCCC(CCO2)C1 (stereo partly drawn) [Compound 344] ?
> 7.00

Would you kindly share the measured pIC50 for Cc1ccc2cc1CNC(=O)[C@H](CCc1ccccc1)NC(=O)[C@@H](NC(=O)OCc1ccccc1)CCCC(=O)N1CCCC(CCO2)C1 (stereo partly drawn) [Compound 195] ?
> 7.00

Would you kindly share the measured pIC50 for Cc1ccc2cc1CNC(=O)[C@H](CCc1ccccc1)NC(=O)[C@@H](NC(=O)CCNS(=O)(=O)c1ccc(OCC3CCCCC3)cc1)CC(=O)N1CCCC(CCO2)C1 (stereo partly drawn) [Compound 672] ?
> 7.00

Would you kindly share the measured pIC50 for CC(=O)N[C@H]1CC(=O)N2CCCC(CCOc3ccc(C)c(c3)CNC(=O)C(CCc3ccncc3)NC1=O)C2 (stereo partly drawn) [Compound 551] ?
> 7.00

Would you kindly share the measured pIC50 for COc1ccc(OCCC(=O)N[C@H]2CC(=O)N3CCCC(CCOc4ccc(C)c(c4)CNC(=O)[C@H](CCc4ccccc4)NC2=O)C3)cc1 (stereo partly drawn) [Compound 622] ?
> 7.00

Would you kindly share the measured pIC50 for Cc1ccc2cc1CNC(=O)C(CCc1ccc(C3(C)COC3)cc1)NC(=O)[C@@H](NC(=O)OCc1ccccc1)CC(=O)N1CCCC(CCO2)C1 (stereo partly drawn) [Compound 510] ?
> 7.00

* * *

- System Name: β5 subunit of the human constitutive proteasome (CPS) (Homo sapiens, UniProt P28074)
- Test Name: β5 inhibition assay, human constitutive proteasome (Suc-LLVY-AMC)
- Experimental Parameters: IC50 class, Suc-LLVY-AMC substrate
Measured Property: IC50

Hello, I am looking for reported IC50 with β5 subunit of the human constitutive proteasome (CPS) (Homo sapiens, UniProt P28074) for Cc1ccc2cc1CNC(=O)[C@H](CCc1ccccc1)NC(=O)[C@@H](NC(=O)C1(CO)CCOCC1)CC(=O)N1CCCC(CCO2)C1 (stereo partly shown) . Could you help?
< 100 nM

Hello, I am looking for reported IC50 with β5 subunit of the human constitutive proteasome (CPS) (Homo sapiens, UniProt P28074) for CC(=O)N[C@H]1CC(=O)N2CCCC(CCOc3cccc(c3)CNC(=O)[C@H](CCc3ccccc3)NC1=O)C2 (stereo partly shown) . Could you help?
< 100 nM

Hello, I am looking for reported IC50 with β5 subunit of the human constitutive proteasome (CPS) (Homo sapiens, UniProt P28074) for Cc1ccc2cc1CNC(=O)C(CCc1ccncc1)NC(=O)[C@@H](NC(=O)OCc1ccccc1)CC(=O)N1CCCC(CCO2)C1 (stereo partly shown) . Could you help?
< 100 nM

Hello, I am looking for reported IC50 with β5 subunit of the human constitutive proteasome (CPS) (Homo sapiens, UniProt P28074) for Cc1ccc2cc1CNC(=O)[C@H](CCc1ccccc1)NC(=O)[C@@H](NC(=O)Cc1nc(-c3ccncc3)n[nH]1)CC(=O)N1CCCC(CCO2)C1 (stereo partly shown) . Could you help?
< 100 nM

Hello, I am looking for reported IC50 with β5 subunit of the human constitutive proteasome (CPS) (Homo sapiens, UniProt P28074) for Cc1cc2cc(c1C)CNC(=O)C(c1cnn(C)c1)NC(=O)CCC(=O)N1CCCC(CCO2)C1 (stereo not shown) . Could you help?
1000 to 5000 nM

Hello, I am looking for reported IC50 with β5 subunit of the human constitutive proteasome (CPS) (Homo sapiens, UniProt P28074) for Cc1ccc2cc1CNC(=O)[C@H](CCc1ccccc1)NC(=O)[C@@H](NC(=O)CCNC1CCC1)CC(=O)N1CCCC(CCO2)C1 (stereo partly shown) . Could you help?
< 100 nM

Hello, I am looking for reported IC50 with β5 subunit of the human constitutive proteasome (CPS) (Homo sapiens, UniProt P28074) for Cc1ccc2cc1CNC(=O)[C@H](CCc1ccccc1)NC(=O)[C@@H](NC(=O)C1(CO)CCNCC1)CC(=O)N1CCCC(CCO2)C1 (stereo partly shown) . Could you help?
< 100 nM

Hello, I am looking for reported IC50 with β5 subunit of the human constitutive proteasome (CPS) (Homo sapiens, UniProt P28074) for Cc1ccc2cc1CNC(=O)[C@H](CCc1ccccc1)NC(=O)[C@@H](NC(=O)c1ncccn1)CC(=O)N1CCCC(CCO2)C1 (stereo partly shown) . Could you help?
< 100 nM

Hello, I am looking for reported IC50 with β5 subunit of the human constitutive proteasome (CPS) (Homo sapiens, UniProt P28074) for Cc1ccc2cc1CNC(=O)[C@H](CCc1ccccc1)NC(=O)[C@@H](NC(=O)CCN1CC3(COC3)C1)CC(=O)N1CCCC(CCO2)C1 (stereo partly shown) . Could you help?
< 100 nM

Hello, I am looking for reported IC50 with β5 subunit of the human constitutive proteasome (CPS) (Homo sapiens, UniProt P28074) for Cc1ccc2cc1CNC(=O)[C@H](CCc1ccccc1)NC(=O)[C@@H](NC(=O)Cc1csc(N)n1)CC(=O)N1CCCC(CCO2)C1 (stereo partly shown) . Could you help?
< 100 nM

Hello, I am looking for reported IC50 with β5 subunit of the human constitutive proteasome (CPS) (Homo sapiens, UniProt P28074) for CC(=O)c1ccc(CC(=O)N[C@H]2CC(=O)N3CCCC(CCOc4ccc(C)c(c4)CNC(=O)[C@H](CCc4ccccc4)NC2=O)C3)cc1 (stereo partly shown) . Could you help?
< 100 nM

Hello, I am looking for reported IC50 with β5 subunit of the human constitutive proteasome (CPS) (Homo sapiens, UniProt P28074) for Cc1ccc2cc1CNC(=O)C(CCc1cnccn1)NC(=O)[C@@H](NC(=O)C1(c3ccc(N)cc3)CC1)CC(=O)N1CCCC(CCO2)C1 (stereo partly shown) . Could you help?
< 100 nM

Hello, I am looking for reported IC50 with β5 subunit of the human constitutive proteasome (CPS) (Homo sapiens, UniProt P28074) for Cc1ccc2cc1CNC(=O)[C@H](CCc1ccccc1)NC(=O)[C@@H](NC(=O)CCOCc1ccccc1)CC(=O)N1CCCC(CCO2)C1 (stereo partly shown) . Could you help?
< 100 nM

Hello, I am looking for reported IC50 with β5 subunit of the human constitutive proteasome (CPS) (Homo sapiens, UniProt P28074) for Cc1ccc2cc1CNC(=O)[C@H](CCc1ccccc1)NC(=O)[C@@H](NC(=O)C(C)(C)C)CC(=O)N1CCCC(CCO2)C1 (stereo partly shown) . Could you help?
< 100 nM

Hello, I am looking for reported IC50 with β5 subunit of the human constitutive proteasome (CPS) (Homo sapiens, UniProt P28074) for COc1ccc(CC(=O)N[C@H]2CC(=O)N3CCCC(CCOc4ccc(C)c(c4)CNC(=O)[C@H](CCc4ccccc4)NC2=O)C3)cc1OC (stereo partly shown) . Could you help?
< 100 nM

Hello, I am looking for reported IC50 with β5 subunit of the human constitutive proteasome (CPS) (Homo sapiens, UniProt P28074) for Cc1ccc2cc1CNC(=O)[C@H](CCc1ccccc1)NC(=O)[C@@H](NC(=O)CCOCCC1CCCC1)CC(=O)N1CCCC(CCO2)C1 (stereo partly shown) . Could you help?
< 100 nM

Hello, I am looking for reported IC50 with β5 subunit of the human constitutive proteasome (CPS) (Homo sapiens, UniProt P28074) for CC(=O)N[C@H]1CC(=O)NCCCCOc2ccc(C)c(c2)CNC(=O)[C@H](CCc2ccccc2)NC1=O . Could you help?
> 5000 nM

Hello, I am looking for reported IC50 with β5 subunit of the human constitutive proteasome (CPS) (Homo sapiens, UniProt P28074) for Cc1ccc2cc1CNC(=O)[C@H](CCc1ccccc1)NC(=O)[C@@H](NC(=O)CCOc1ccccc1)CC(=O)N1CCCC(CCO2)C1 (stereo partly shown) . Could you help?
< 100 nM

Hello, I am looking for reported IC50 with β5 subunit of the human constitutive proteasome (CPS) (Homo sapiens, UniProt P28074) for Cc1ccc2cc1CNC(=O)C(c1cnn(C)c1)NC(=O)[C@@H](NC(=O)[C@@H](C)c1ccccc1)CC(=O)N1CCCC(CCO2)C1 (stereo partly shown) . Could you help?
< 100 nM

Hello, I am looking for reported IC50 with β5 subunit of the human constitutive proteasome (CPS) (Homo sapiens, UniProt P28074) for Cc1ccc2cc1CNC(=O)[C@H](CCc1ccccc1)NC(=O)[C@@H](NC(=O)CN1CCOCC1)CC(=O)N1CCCC(CCO2)C1 (stereo partly shown) . Could you help?
< 100 nM

Hello, I am looking for reported IC50 with β5 subunit of the human constitutive proteasome (CPS) (Homo sapiens, UniProt P28074) for Cc1ccc2cc1CNC(=O)[C@H](CCc1ccccc1)NC(=O)[C@@H](NC(=O)C1(c3ccc(N)cc3)CCCC1)CC(=O)N1CCCC(CCO2)C1 (stereo partly shown) . Could you help?
< 100 nM

Hello, I am looking for reported IC50 with β5 subunit of the human constitutive proteasome (CPS) (Homo sapiens, UniProt P28074) for CC(=O)N[C@H]1CC(=O)N2CCCC(CCOc3ccc(C)c(c3)CNC(=O)C(c3cc(C)sn3)NC1=O)C2 (stereo partly shown) . Could you help?
< 100 nM

Hello, I am looking for reported IC50 with β5 subunit of the human constitutive proteasome (CPS) (Homo sapiens, UniProt P28074) for Cc1ccc2cc1CNC(=O)[C@@H](CCc1ccccc1)NC(=O)[C@H](NC(=O)OCc1ccccc1)CC(=O)N1CCC[C@H](CCO2)C1 . Could you help?
1000 to 5000 nM

Hello, I am looking for reported IC50 with β5 subunit of the human constitutive proteasome (CPS) (Homo sapiens, UniProt P28074) for Cc1cc2cc(c1C)CNC(=O)[C@H](CCc1ccccc1)NC(=O)CCC(=O)N1CCCC(CCO2)C1 (stereo partly shown) . Could you help?
< 100 nM

Hello, I am looking for reported IC50 with β5 subunit of the human constitutive proteasome (CPS) (Homo sapiens, UniProt P28074) for Cc1ccc2cc1CNC(=O)[C@H](CCc1ccccc1)NC(=O)[C@@H](NC(=O)OCc1ccccc1)CCC(=O)N1CCCC3(CC(C3)O2)C1 . Could you help?
1000 to 5000 nM
